System: R.D. cells
Test: Cytotoxicity by neutral red uptake in R.D. cells, no viral infection
Type: cell-based, Human
What CC50 was measured for each of the following?
Answers are plain numbers, in µM.

CCC[C@H](NC(=O)[C@@H]1[C@H]2CCC[C@H]2CN1C(=O)[C@@H](NC(=O)CC12CC3CC(CC(C3)C1)C2)C(C)(C)C)C(=O)C(=O)NC1CC1
36.2

As a next step, examine the compound that follows.
# query: CC50 of entry CCC[C@H](NC(=O)[C@@H]1[C@H]2CCC[C@H]2CN1C(=O)[C@@H](NC(=O)[C@@H](NC(=O)c1cnccn1)C1CCCCC1)C(C)(C)C)C(=O)C(=O)NC1CC1 [Telaprevir, reference compound]
83.2

###

Test system: EV-D68 US/MO/14-18947
Test: CPE assay (neutral red) with EV-D68 US/MO/14-18947 in R.D. cells
Assay type: cell-based, Enterovirus D68
Conditions: read-out: Antiviral EC50; CPE assay, EV-D68 US/MO/14-18947 in R.D. cells
propertyLabel: EC50 (nM)
Answers are plain numbers, in nM.

# query: EC50 of entry CCC[C@H](NC(=O)[C@@H]1[C@H]2CCC[C@H]2CN1C(=O)[C@@H](NC(=O)CC12CC3CC(CC(C3)C1)C2)C(C)(C)C)C(=O)C(=O)NC1CC1
160

###

Target: EV-D68 2A^pro (WT-2A^pro, strain US/KY/14-18953, expressed in E. coli BL21(DE3) from pE-SUMOstar vector) (enterovirus D68)
Construct: E. coli-codon-optimised gene, pE-SUMOstar, His-SUMO tag (removed with SUMO protease for nontagged form), E. coli BL21(DE3), Ni-NTA; 7JRE is the C107A mutant
Test: FRET-based enzymatic assay of EV-D68 2A^pro inhibition (FRET substrate Dabcyl-KIRIVNT/GPGFGGE-Edans)
propertyLabel: pIC50
Give bare numbers, as −log10 of the molar value.

Examples from the recorded data:
CCC[C@H](NC(=O)[C@@H]1[C@H]2CCC[C@H]2CN1C(=O)[C@@H](NC(=O)CC1CCC(F)(F)CC1)C(C)(C)C)C(=O)C(=O)NC1CC1
6.85
CC(C)C[C@H](NC(=O)[C@@H]1[C@H]2CCC[C@H]2CN1C(=O)[C@@H](NC(=O)CC12CC3CC(CC(C3)C1)C2)C(C)(C)C)C(=O)C(=O)NC1CC1
6.59
CCC[C@H](NC(=O)[C@@H]1[C@H]2CCC[C@H]2CN1C(=O)[C@@H](NC(=O)[C@@H](NC(=O)OCc1ccccc1)C1CCCCC1)C(C)(C)C)C(=O)C(=O)NC1CC1
6.44

Provide pIC50 values for the following items, in order.
1. CC(C)(C)[C@H](NC(=O)CC12CC3CC(CC(C3)C1)C2)C(=O)N1C[C@@H]2CCC[C@@H]2[C@H]1C(=O)N[C@H](C(=O)C(=O)NC1CC1)c1ccc(F)cc1
2. CCCC(NC(=O)C1C2CCCC2CN1C(=O)C(NC(=O)CC1C2CC3CC(C2)CC1C3)C(C)(C)C)C(=O)C(=O)NC1CC1 (centres unmarked)

1. 6.46
2. 6.92

###

System: EV-D68 US/MO/14-18947
Test: CPE assay (neutral red) with EV-D68 US/MO/14-18947 in R.D. cells
Type: cell-based, Enterovirus D68
Conditions: CPE assay, EV-D68 US/MO/14-18947 in R.D. cells; read-out: Antiviral EC50
What pEC50 was measured for each of the following?
Answers are plain numbers, as −log10 of the molar value.

CCC[C@H](NC(=O)[C@@H]1[C@H]2CCC[C@H]2CN1C(=O)[C@@H](NC(=O)CC1C2CC3CC(C2)CC1C3)C(C)(C)C)C(=O)C(=O)NC1CC1 (stereo partly drawn)
6.74
CCC[C@H](NC(=O)[C@@H]1[C@H]2CCC[C@H]2CN1C(=O)[C@@H](NC(=O)C[C@@]12C[C@@H]3C[C@@H](C[C@@](O)(C3)C1)C2)C(C)(C)C)C(=O)C(=O)NC1CC1
5.73

As a next step, examine the compound that follows.
# query: pEC50 of entry CCC[C@H](NC(=O)[C@@H]1[C@H]2CCC[C@H]2CN1C(=O)[C@@H](NC(=O)NC12CC3CC(CC(C3)C1)C2)C(C)(C)C)C(=O)C(=O)NC1CC1
6.15
